System: OVCAR-8 ovarian
Experiment: NCI-60 one-dose screen, 48 h
Settings: 10 µM
The panel holds about 83,000 compounds, 20% with a hit somewhere; the sample as a whole holds those more often. Activity calls are given as the source filed them. How the source made its calls: active means growth percent below 10; inactive means the rest.
Labels: 1.0 (active), 0.0 (inactive)

O=C(CCCc1ccc(N(CCCl)CCCl)cc1)OCc1ccccc1; 0.0
CN1C(=O)[C@]23SSC1(C)C(=O)N2[C@H]1Nc2ccccc2C1([C@@]12c4ccccc4N[C@@H]1N1C(=O)C4(C)SS[C@]1(C(=O)N4C)[C@H]2O)[C@@H]3O (some centres undefined); 1.0
COc1cccc2c1cc([N+](=O)[O-])c1c(C(=O)O)cc3c(c12)OCO3; 0.0
C/C=C\C(=O)O[C@@H]1CC2O[C@@H]3C=C(C)C(=O)C[C@]3(C)[C@]1(C)[C@]21CO1; 1.0

Where these numbers come from: PubChem BioAssay (NCI)
